# Assay comment: yeast display, Sf9 membrane polyspecificity reagent, FACS + sequencing; frameworks hold sequencing errors
Measurement type: polyreactivity (PSR sort gate)

QVQLVESGGGLVQAGGSLRLSCAASGSTFDFNAMGWYRQAPRKERELVASISWDTGGTYADSVKGRFTISRDNAKNSFYLQMNSLKTEDTAVYFCAARPDYFIFDYWGQGTQVTVSS
low polyreactivity
QVQLEESGAGLVQAGGSLRLSCAASGSIFNLYAMGWYRQAPGKEMELVAAINWSGGSTYYADSVKGRFTISRDNAKNTVYLQMNSLKPEDTAVYYCAADAYSTYYGYEGDYWGQGTQVTVSS
low polyreactivity

---

# Assay comment: yeast display, Sf9 membrane polyspecificity reagent, FACS + sequencing; frameworks hold sequencing errors
Measurement type: polyreactivity (PSR sort gate)

For orientation, consider the following solved cases.
QVQLVESGGGLVQAGGSLRLSCAASGFTFRAYAMGWSRQAPGKERELVAAISTGGGSTYYADSVKGRFTISRDNAKNTVYLQMNSLKPEDTAVYYCNALPQRRYYYWGQGTQVTVSS
high polyreactivity
QVQLVESGGGLVQAGGSLRLSCAASGSTFSRYAMGWYRPAPGKERELVAAISRSGGTTYYADSVKGRFTISRDNAKNTVYLQMNSLKPEDTAVYYCNARGRYEYGYWGQGTQVTVSS
high polyreactivity
QVQLVESGGRLVQAGGRLRLSCAASGFIVYFNAMGWYIQAPGKERELVAAIRISGGSTYYADSVKGRFTISRDNAKNTVYLQMNSLKPEDTAVYYCATAPENYVSVGYDYWGQGTQVTVSS
low polyreactivity
QVQLVESGGGLVQAGGSLRLSCAASGIIFTYAMGWYRQAPGKERELVAAIDWRGGRTYYADTVKGRFTISRDNAKNTVYLEMNSLKPEDTAVYYCAARLPGGTYYWGQGTQVTVSS
high polyreactivity

// field: polyreactivity (PSR sort gate); key: "QDQLVESGGGLVQAGGSLRLSCAASGSTLYAYAMGWYRQAPGKERELVAAISFSTTSTYYADSVKGRFTISRDYEKNTVYLQMNSLKPEDTAVYYCAAEYWYYWEYEYWGLGTQVTVSS" ; value = high polyreactivity

// field: polyreactivity (PSR sort gate); key: "QVQLVESGGGLVQAGGSLRLSCAASGSTFITNAMGGYRQAPGKERELVATISRSGGRTYYADSVKGRFTISRDNAKNSVYLEMNSLNPEDTAVFYCAKRYGSKFEYWGLGTQVTVSS" ; value = high polyreactivity

// field: polyreactivity (PSR sort gate); key: "QVQLVESGGGLVQAGGSLRLSCAASGSIFGVNAMGWYRQAPGKERELVADITKSTGDTYADSVKGRFTISRDNAKNTVYLQMNSLKPEDTAVYYCNARFTVKQKRLYLYDYWGQGTQVTVSS" ; value = low polyreactivity

// field: polyreactivity (PSR sort gate); key: "QVQIVESGGGLVQAGGSLRLTCAASGFTFYKKAMGWYIQAPGKERELVAAITSSGGSTYYADSVKGRFTISRDNAKNTVYLQMNSLKPEDTAVYYCAAYPQAYIADYDYWGQGTQVTVSS" ; value = low polyreactivity

// field: polyreactivity (PSR sort gate); key: "QVQLVESGGGLVQAGGSLRLSCAASGLTFSWYAMGWYRQAPGKEREFVATISASGGSTYYADSVKGRFTISRDNAKNTVYLQMNSLKPEDTAVYYCNAIYFRYRNGGYDYWGQGTQVTVSS" ; value = high polyreactivity

// field: polyreactivity (PSR sort gate); key: "QVQLVESGGGLVQAGGSLRLSCAASGRTSDEYAMGWYRPAPGKERELVAAITSGGSTNYADSVKGRFTISRDNAKNTVYLQMNSLKPEDTAVYYCAADNIRTWRPIYDYWGQGTQVTVSS" ; value = low polyreactivity

// field: polyreactivity (PSR sort gate); key: "QVQLVESGRGLVQAAGSLRLSCASSGSTYFGNTMVWYRQAPGKERELVATITRRGGTTYYADSVKGRFTISRDNAKNSVFLQMNSLKPEDTAVYYCAKRGPYTKYDYWGQGTQVTVSS" ; value = low polyreactivity
